- TGT: Human recombinant PDE4 (Genbank accession no NM—006203) (Homo sapiens)
- Sequence (Q08499 1-673 isoform Q08499-2): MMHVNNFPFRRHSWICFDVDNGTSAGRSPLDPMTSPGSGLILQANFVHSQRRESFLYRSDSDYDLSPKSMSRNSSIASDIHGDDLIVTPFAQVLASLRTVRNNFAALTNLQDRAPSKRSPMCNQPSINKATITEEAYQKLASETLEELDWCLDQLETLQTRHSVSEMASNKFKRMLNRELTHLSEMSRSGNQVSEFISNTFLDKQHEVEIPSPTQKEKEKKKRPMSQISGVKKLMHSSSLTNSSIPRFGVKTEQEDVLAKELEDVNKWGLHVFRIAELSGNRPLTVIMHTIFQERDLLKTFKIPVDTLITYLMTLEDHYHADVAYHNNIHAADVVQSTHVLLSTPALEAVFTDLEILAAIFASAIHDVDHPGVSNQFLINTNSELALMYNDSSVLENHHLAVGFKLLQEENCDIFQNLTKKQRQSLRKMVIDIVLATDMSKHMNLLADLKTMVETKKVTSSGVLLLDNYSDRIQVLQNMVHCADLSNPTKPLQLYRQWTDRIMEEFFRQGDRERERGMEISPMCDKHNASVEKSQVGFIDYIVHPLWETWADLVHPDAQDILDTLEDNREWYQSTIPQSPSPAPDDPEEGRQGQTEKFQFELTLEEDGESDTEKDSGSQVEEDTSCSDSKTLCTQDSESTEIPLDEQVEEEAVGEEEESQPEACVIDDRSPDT
- PROTOCOL: PDE4 Assay (SPA, cleavage of cAMP)
- Format: biochemical
- CONDITION_SET: human recombinant PDE4, 1 hour incubation, cAMP 1×10^-5M, test compound up to 10 μM; read-out: IC50 (PDE4)
OUTCOME_MEASURE: IC50
Write the figure, then the unit, nothing else.

Give its IC50 value. Item: COc1ccc(C(=O)Cc2ccnc3ccccc23)c2c1OC1(CCSCC1)O2
1.8 µM

Give its IC50 value. Item: COc1ccc(C(=O)Cc2c(Cl)c[n+]([O-])cc2Cl)c2c1OCC1(CCOCC1)CO2
0.011 µM

Give its IC50 value. Item: COc1ccc(C(=O)Cc2c(Cl)cncc2Cl)c2c1OCC1(CO2)CS(=O)(=O)C1
0.104 µM

Give its IC50 value. Item: COc1ccc(C(=O)Nc2c(Cl)cncc2Cl)c2c1OC1(CCOCC1)O2
0.041 µM

Give its IC50 value. Item: COc1ccc(C(=O)Cc2c(Cl)cncc2Cl)c2c1OCC1(CCOCC1)CO2
0.022 µM

Give its IC50 value. Item: COc1ccc(C(=O)Cc2c(Cl)c[n+]([O-])cc2Cl)c2c1OC1(CCOCC1)O2
0.026 µM

Give its IC50 value. Item: COc1ccc(C(=O)Cc2c(Cl)cncc2Cl)c2c1OC1(CCN(S(C)(=O)=O)CC1)O2
0.59 µM

Give its IC50 value. Item: COc1ccc(C(=O)Cc2c(Cl)c[n+]([O-])cc2Cl)c2c1OCC1(COCOC1)CO2
0.043 µM

Give its IC50 value. Item: COc1ccc(C(=O)Cc2c(Cl)cncc2Cl)c2c1OCC1(CO2)OCCO1
0.067 µM

Give its IC50 value. Item: COc1ccc(C(=O)Cc2c(Cl)cncc2Cl)c2c1OC1(CC[S+]([O-])CC1)O2 (centres unmarked)
0.018 µM

Give its IC50 value. Item: COc1ccc(C(=O)Cc2ccccc2Cl)c2c1OC1(CCSCC1)O2
0.31 µM

Give its IC50 value. Item: COc1ccc(C(=O)Cc2nccnc2Br)c2c1OC1(CCSCC1)O2
1.41 µM

Give its IC50 value. Item: COc1ccc(C(=O)Cc2c(Cl)cncc2Cl)c2c1OC1(CCS(=O)(=O)CC1)O2
0.029 µM

Give its IC50 value. Item: COc1ccc(C(=O)Cc2c(Cl)cncc2Cl)c2c1OCC1(CO2)CSC1
0.017 µM

Give its IC50 value. Item: COc1ccc(C(=O)Cc2c(Cl)cncc2Cl)c2c1OC1(CCSC1)O2 (centres unmarked)
0.01 µM

Give its IC50 value. Item: COc1ccc(C(=O)Cc2c(Cl)cncc2Cl)c2c1OCC1(COC1)CO2
0.052 µM

Give its IC50 value. Item: COc1ccc(C(=O)Cc2c(Cl)cncc2Cl)c2c1OC1(CCOCC1)O2
0.026 µM
